TARGET SYSTEM: T1, human CLDN18.2 (human)
T1 construct: also called huCLDN18.2; hCLDN18.2
RUN DESCRIPTION: flow cytometry titration, HEK293T cells overexpressing CLDN18.2
Collected Max MFI values appear next to each entry.
Write the value in MFI as a bare number.

Sample answers from the record:
hCl1g (antibody, human IgG1, kappa, V domains shown, Humanized) VH: QVQLVQSGAEVKKPGASVKVSCKASGYTFTDYAMHWVRQAPGQRLEWMGWINAYTGKPTYAQKFQGRVTITRDTSASTAYMELSSLRSEDTAVYYCARAVFYGYTMDAWGQGTLVTVSS VL: DIQMTQSPSSLSASVGDRVTITCRTSEDIYSNFAWYQQKPGKAPKLLIYSVNRLQDGVPSRFSGSGSGTDFTLTISSLQPEDFATYYCLQGSKFPLTFGQGTKVEIKR: 1440
hCl1j (antibody, human IgG1, kappa, V domains shown, Humanized) VH: QVQLVQSGAEVKKPGASVKVSCKASGYTFTDYAMYWVRQAPGQRLEWMGWINAYTGKPTYAQKFQGRVTITRDTSASTAYMELSSLRSEDTAVYYCARAVYYGYTMDAWGQGTLVTVSS VL: DIQMTQSPSSLSASVGDRVTITCRTSEDIYSNLAWYQQKPGKAPKLLIFAIKRLQDGVPSRFSGSGSGTDFTLTISSLQPEDFATYYCLQGSKFPLTFGQGTKVEIKR: 1850
hCl1a (antibody, human IgG1, kappa, V domains shown, Humanized) VH: QVQLVQSGAEVKKPGASVKVSCKASGYTFTDYAMHWVRQAPGQRLEWMGWINTYTGKPTYAQKFQGRVTITRDTSASTAYMELSSLRSEDTAVYYCARAVFYGYTMDAWGQGTLVTVSS VL: DIQMTQSPSSLSASVGDRVTITCRASEDIYSNLAWYQQKPGKAPKLLIFSVKRLQDGVPSRFSGSGSGTDFTLTISSLQPEDFATYYCLQGSNFPLTFGQGTKVEIKR: 1880
IMAB362 (antibody, human IgG1, kappa, V domains shown, Control, chimeric IgG1, synthesized from the published chains; also called Claudiximab; Zolbetuximab) VH: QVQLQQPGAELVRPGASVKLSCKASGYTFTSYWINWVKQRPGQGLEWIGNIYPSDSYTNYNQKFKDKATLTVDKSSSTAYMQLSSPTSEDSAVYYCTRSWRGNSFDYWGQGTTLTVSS VL: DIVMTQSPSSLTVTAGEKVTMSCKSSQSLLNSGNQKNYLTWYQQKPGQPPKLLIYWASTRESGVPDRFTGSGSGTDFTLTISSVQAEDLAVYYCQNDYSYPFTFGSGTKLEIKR: 1970
hCl1f (antibody, human IgG1, kappa, V domains shown, Humanized) VH: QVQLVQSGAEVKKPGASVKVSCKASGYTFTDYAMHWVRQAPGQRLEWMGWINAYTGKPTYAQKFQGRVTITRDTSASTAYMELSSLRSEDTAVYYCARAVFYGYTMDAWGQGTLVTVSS VL: DIQMTQSPSSLSASVGDRVTITCRASEDIYSNLAWYQQKPGKAPKLLIYSVKRLQDGVPSRFSGSGSGTDFTLTISSLQPEDFATYYCLQGSNFPLTFGQGTKVEIKR: 1720

The recorded Max MFI for hCl1c (antibody, human IgG1, kappa, V domains shown, Humanized) VH: QVQLVQSGAEVKKPGASVKVSCKASGYTFTDYAMHWVRQAPGQRLEWMGWINTYTGKPTYSQKFQGRVTITRDTSASTAYMELSSLRSEDTAVYYCARAVFYGYTMDAWGQGTLVTVSS VL: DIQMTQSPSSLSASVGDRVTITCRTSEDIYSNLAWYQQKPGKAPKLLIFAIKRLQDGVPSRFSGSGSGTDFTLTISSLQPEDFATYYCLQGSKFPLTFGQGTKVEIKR is 1230

The recorded Max MFI for hCl1d (antibody, human IgG1, kappa, V domains shown, Humanized) VH: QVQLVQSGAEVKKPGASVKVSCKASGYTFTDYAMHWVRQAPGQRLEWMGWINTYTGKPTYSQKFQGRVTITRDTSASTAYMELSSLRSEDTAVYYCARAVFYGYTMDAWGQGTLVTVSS VL: DIQMTQSPSSLSASVGDRVTITCRTSEDIYSNFAWYQQKPGKAPKLLIYSVNRLQDGVPSRFSGSGSGTDFTLTISSLQPEDFATYYCLQGSKFPLTFGQGTKVEIKR is 1640
